tested on: HT-29 (human colon adenocarcinoma); experiment: MTS cytotoxicity / antiproliferative assay; type: cell-based; settings: Homo sapiens, HT-29, 72 h, Table 6 maple compounds; 72 h; unit inferred; read-out: HT-29 72 h(IC50)
measurement.label: IC50 (µM)
All answers are understood in µM, so give the number only.

Use the examples below as a reference point.
- molecule: "COc1cc(/C=C/CO)cc(OC)c1O [compound 20, syringenin]"
  recorded.number: 113
- molecule: "COc1ccc(C2OC(=O)C(O)(Cc3ccc(OC4OC(C)C(O)C(O)C4O)c(OC)c3)C2CO)cc1OC (stereo not drawn) [compound 7]"
  recorded.number: 98.2

Prompt line: Can you share its IC50? I mean this molecule: COc1cc(/C=C/CO)ccc1O [compound 21, (E)-coniferol]
Response line: 113

Prompt line: Thanks! And COc1cc(C(=O)C(O)CO)ccc1O (stereo not drawn) [compound 22, C-veratroylglycol] ?
Response line: 88.6

Prompt line: Thanks! And COc1cc(C=O)ccc1O [compound 15, vanillin] ?
Response line: 114

----------
system: CCD-18Co (normal human colon fibroblasts); experiment: MTS cytotoxicity / antiproliferative assay; format: cell-based; conditions: Homo sapiens, CCD-18Co, 72 h; pure isolated compounds; read-out: Antiproliferative activity CCD-8Co 72 h (IC50)
pIC50 values by entry
pIC50 here is simply -log10 of the concentration when that concentration is written in mol/L.

- compound: "COc1cc(CC(CO)C(CO)Cc2ccc(O)c(OC)c2)ccc1O (stereo not drawn)"
  pIC50: 4.00

Prompt line: Can you share its pIC50? I mean this compound: Oc1ccccc1O
Response line: 3.94

Prompt line: Thanks! And COc1cc(C(CO)C(c2ccc(O)c(OC)c2)c2ccc(O)c(OC)c2)ccc1O (stereo not drawn) ?
Response line: 3.92

----------
system: Caco-2 (human epithelial colorectal adenocarcinoma); assay: MTS cytotoxicity / antiproliferative assay; format: cell-based; settings: Homo sapiens, Caco-2, 72 h, Table 6 maple compounds; 72 h; unit inferred; read-out: Caco-2 72 h(IC50)
IC50 values by entry
Give the number first and the unit second.

- compound: "O=C(CO)c1ccc(O)c(O)c1 [compound 11, 2-hydroxy-3′,4′-dihydroxyacetophenone]"
  result: "86 µM"
- compound: "COc1cc(/C=C/c2ccc(O)c(OC)c2)ccc1O"
  result: "93.1 µM"
- compound: "COc1cc2ccc(=O)oc2c(O)c1O"
  result: "101 µM"
- compound: "COc1cc([C@@H](O)[C@@H](CO)Oc2ccc(CCCO)cc2OC)ccc1O"
  result: "88.5 µM"
- compound: "COc1cc(/C=C/CO)ccc1O [compound 21, (E)-coniferol]"
  result: "96.4 µM"
- compound: "COc1cc([C@@H]2c3cc4c(cc3[C@@H](O[C@@H]3O[C@@H]5CO[C@@H](C)O[C@H]5[C@H](O)[C@H]3O)[C@H]3COC(=O)[C@H]23)OCO4)cc(OC)c1O [Etoposide, reference compound]"
  result: "12.3 µM"

// next entry
Prompt line: Can you share its IC50? I mean this compound: O=C(OC[C@H]1OC[C@H](OC(=O)c2cc(O)c(O)c(O)c2)[C@@H](O)[C@@H]1O)c1cc(O)c(O)c(O)c1 [compound 70, 2,6-di-O-galloyl-1,5-anhydro-D-glucitol]
Response line: 46.5 µM

Values compiled from patent US20130267474A1.
